Each recorded value in this set is attributed to PubChem BioAssay AID651784.

compounds and their reported activity change, negative = inhibition
- experimentDescription: Acumen qHTS Assay for Inhibitors of the mTORC1 Signaling Pathway in MEF (Tsc2-/-, p53-/-) Cells: Hit Validation;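 further: phospho-rpS6 Ser235/236 immunofluorescence normalized to propidium iodide cell count; nearly all actives have a fitted effect of over 65% in size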;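 on activity change, negative = inhibition: cells exposed to compound for 24 hours; plate controls were DMSO for no effect and 7.5 nM rapamycin control for full effect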
- conditionContext: Acumen imaging; at 37.3 µM (top of the series)
Results filed as inconclusive are left out.
reportedProperty: activity change, negative = inhibition (%)

sampleSmiles: NC(N)=NC(=O)c1nc(Cl)c(N)nc1N
reportedValue: 57.9
--
sampleSmiles: Cc1ccc(-n2c(/C=C/c3ccc(Br)s3)nc3ccccc3c2=O)cc1C
reportedValue: -10.2
--
sampleSmiles: Cc1ccccc1-c1nc(CN2C(=O)CN=C(c3ccccc3)c3ccccc32)c(C)o1
reportedValue: -13.1
--
sampleSmiles: CCOc1ccc(CN(CCc2ccc3c(c2)OCO3)Cc2ccc(C)cc2)cc1
reportedValue: -0.408
--
sampleSmiles: CCN(CC)C(=O)c1ccc(NC(=O)CCn2nc(-c3ccc(C)cc3)c3ccccc3c2=O)cc1
reportedValue: -9.62

###

- experimentDescription: Acumen qHTS Assay for Inhibitors of the mTORC1 Signaling Pathway in MEF (Tsc2-/-, p53-/-) Cells: Hit Validation;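 further: phospho-rpS6 Ser235/236 immunofluorescence normalized to propidium iodide cell count; nearly all actives have a fitted effect of over 65% in size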; further: potency means the concentration at half of the fitted maximal effect
- conditionContext: Acumen imaging
Inconclusive results are not listed. The source made the active and inactive calls. Calls come from the whole dose curve; as a rule, active = well fitted inhibition curve with a large enough effect; inconclusive = small, poorly fitted or top-dose-only effect; inactive = no such curve, though single readings can be large or run the other way.
molecules and their reported Potency
reportedProperty: Potency

molecule: COc1ccc(S(=O)(=O)NCCc2sc3nc(-c4ccc(C)cc4)nn3c2C)cc1F
reportedValue: 7.36 µM (active)

molecule: COc1ccc(N2CCN(C(=O)C3CCCN(S(=O)(=O)c4ccc5c(c4)CCCN5C(C)=O)C3)CC2)cc1 (stereo not drawn)
reportedValue: 16.5 µM (active)

molecule: COc1ccc(C(=O)Nc2ccc3c(c2)N(C)C(=O)c2ccccc2S3)cc1OC
reportedValue: 10.4 µM (active)

molecule: COc1ccc2nc(NC(=O)c3nc(S(=O)(=O)Cc4cccc(C)c4)ncc3Cl)sc2c1
reportedValue: 2.07 µM (active)

molecule: O=C(c1ccccc1)c1ccc2nc(N3CCN(c4ccc(F)cc4)CC3)c3nncn3c2c1
reportedValue: 18.5 µM (active)

molecule: COc1ccccc1N=c1scc(-c2ccc(S(=O)(=O)N3CCCC3)cc2)n1C
reportedValue: 5.85 µM (active)

molecule: Cc1oc(-c2ccc(Cl)cc2)nc1CN1CCC(C(=O)NCCCN2CCN(c3cccc(Cl)c3)CC2)CC1
reportedValue: 5.85 µM (active)

molecule: CN[C@@H]1C[C@@]2(C)O[C@@H]([C@@H]1OC)n1c3ccccc3c3c4c(c5c6ccccc6n2c5c31)C(=O)NC4
reportedValue: 0.0163 µM (active)
